These entries and their values trace back to PubChem BioAssay (NCATS).

PROTOCOL DETAILS: Quantitative highthroughput screen to assess conditional lethalithy of P12 Ichikawa cells grown in Human Plasma-Like Medium with dialyzed fetal bovine serum (HPLM+ds) (AID 1963879); also: nearly all actives have a fitted effect of over 35% in size
COND: ATP luminescence, 48 h; viability; series mostly up to 45.8 µM
Records with an inconclusive call do not appear. Active and inactive are the calls of the source. Calls follow the shape of the dose curve; as a rule, active = well fitted cell-killing curve with a large enough effect; inconclusive = small, poorly fitted or top-dose-only effect; inactive = flat fitted curve, though single readings scatter.
Select the correct class. Options are active, inactive and nothing else.

Cc1nc2n(c(=O)c1CCN1CCC(c3noc4cc(F)ccc34)CC1)CCCC2 = inactive
COC1CCC(N(C(=O)C2CCC(C)CC2)c2cc(C3=CCCCC3)sc2C(=O)O)CC1 (configuration not stated) = active

Query string: Called result for CC1(C)Cc2c(-c3ccccc3)c(-c3ccc(Cl)cc3)c(CC(=O)O)n2C1
Result string: inactive

Query string: Hi, sorry to bother you, what did the test record for COc1cccc2c1C(=O)c1c(O)c3c(c(O)c1C2=O)C[C@@](O)(C(=O)CO)C[C@H]3O[C@H]1C[C@H](N)[C@H](O)[C@H](C)O1 ?
Result string: active

Query string: Record request — test call for Cc1c[nH]c(C=C2C(=O)Nc3ccccc32)c1CCC(=O)O
Result string: active

Query string: # fetch the recorded call for O=C(O)CCCCC(CCSCc1ccccc1)SCc1ccccc1 (configuration not stated) here
Result string: active

Query string: Assay result, entry O=S(=O)(O)CCS — outcome?
Result string: active

Query string: Would you mind telling me which call this test gave CCOC(=O)[C@@H](N)CCC(=O)N[C@@H](CSCc1ccccc1)C(=O)N[C@@H](C(=O)OCC)c1ccccc1 ?
Result string: inactive

Query string: Any idea what this test logged for CC1=CC(=O)c2ccccc2C1=O ?
Result string: inactive

Query string: In this assay, the call recorded for CN(CCOc1ccc(CC2SC(=O)NC2=O)cc1)c1ccccn1 (configuration not stated) was what?
Result string: inactive

Query string: Status in this test for Nc1ccn([C@@H]2CS[C@H](CO)O2)c(=O)n1 ?
Result string: inactive

Query string: Recorded test outcome, item Oc1ccc(-c2ccc(-c3cc(Nc4cccc(CNC5CC5)c4)n[nH]3)cc2)c(O)c1
Result string: active
